As shown below, each of these compounds has a reported GI50 value.
- System: NCI-H522
- Assay summary: NCI tumour cell line growth inhibition, 48 h
Active and inactive are the calls of the source. Rule as the data show it: active = GI50 up to about 1.1 µM and inactive = higher. Peptide text beside a SMILES is read from it. * marks the point of attachment. Boc = CC(C)(C)OC(=O)*

Compound	GI50
O=C(CCC1CCCCN1)Nc1ccc2c(c1)C(=O)c1ccc(NC(=O)CCN3CCCCC3)cc1C2=O (stereo not given)	1.38 µM (inactive)
Cc1nc2c(n1C(C)(C)C)C(=O)c1ccccc1C2=O	44 µM (inactive)
O=C1c2ccccc2C(=O)c2c1ccc1c3ccccc3n(Cc3ccccc3)c21	> 100 µM (inactive)

Indicate its recorded GI50; the compound in question is CSCCC(NC(=O)C(CC(C)C)NC(=O)CNC(=O)OC(C)(C)C)C(=O)N(C)C (stereo not drawn) (Boc-Gly-Leu-Met-NMe2; configuration not given here) > 100 µM (inactive)

Indicate its recorded GI50; the compound in question is COC(=O)c1onc(C2OC(C)(C)OC2C(O)COC(c2ccccc2)(c2ccccc2)c2ccccc2)c1C(=O)OC (stereo not given) 65.8 µM (inactive)

Indicate its recorded GI50; the compound in question is O=C(NC/C(Cl)=C/Cl)Nc1c2ccccc2nc2ccccc12 > 100 µM (inactive)

Indicate its recorded GI50; the compound in question is CN(C)CCCNC(=O)c1cc2/c(=C\c3ccc(N(C)C)cc3)c3ccccc3n2[n+]1C 2.64 µM (inactive)

Indicate its recorded GI50; the compound in question is CCCc1ccc(OCC(=O)N/N=C/c2c(-c3ccccc3)[nH]c3ccccc23)cc1 14.6 µM (inactive)

Indicate its recorded GI50; the compound in question is CC(=O)CC1CCC(=O)/C=C/C(=O)OC(CC(C)=O)CCC(=O)/C=C/C(=O)O1 (stereo not given) 1.14 µM (inactive)

Indicate its recorded GI50; the compound in question is COc1ccc([C@@]23OC[C@@H]4[C@@H](OC[C@@H]42)c2cc(OC)c(OC)cc23)cc1OC > 100 µM (inactive)
